system.name: BCLXL (Homo sapiens, UniProt Q07817, V10N/V9A)
Sequence (Q07817 with tags, fused parts or gaps V9A/V10N): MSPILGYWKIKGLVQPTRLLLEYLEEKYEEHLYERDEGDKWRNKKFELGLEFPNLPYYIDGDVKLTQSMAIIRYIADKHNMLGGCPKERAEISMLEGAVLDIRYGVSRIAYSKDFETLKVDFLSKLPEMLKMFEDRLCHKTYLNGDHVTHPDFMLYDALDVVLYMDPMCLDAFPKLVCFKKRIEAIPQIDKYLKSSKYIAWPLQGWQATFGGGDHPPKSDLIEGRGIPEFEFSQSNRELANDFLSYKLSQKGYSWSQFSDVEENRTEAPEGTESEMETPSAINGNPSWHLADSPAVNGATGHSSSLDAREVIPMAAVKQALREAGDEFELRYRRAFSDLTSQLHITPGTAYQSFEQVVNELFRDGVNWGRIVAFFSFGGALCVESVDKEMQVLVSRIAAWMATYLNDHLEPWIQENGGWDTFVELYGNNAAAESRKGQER
method.description: Fluorescence polarisation assay (PUMA-based probe displacement); further: 20 nM protein, 10 nM fluorescent probe
readout.kind: pKi
Numbers only, as −log10 of the molar value.

Solved entries (count: 2):
CNCCN(C)CC#Cc1ccc(OCCCc2sc(N(C)c3cc(C)c(Nc4nc5ccccc5s4)nn3)nc2C(=O)O)c(F)c1 ... 8.96
CN(c1ccc(Nc2nc3ccccc3s2)nn1)c1cccc(C(=O)O)n1 ... 3.60

// moving on: another record for pKi
Would you kindly share the measured pKi for Cc1cc(N(C)c2nc(C(=O)O)c(C3CCN(C(=O)OC(C)(C)C)CC3)s2)nnc1Nc1nc2ccccc2s1 ?
7.31

---

system.name: Bcl-xL protein (Homo sapiens, UniProt Q07817, N197C)
Construct: (2-197)[N197C]; His-His (two His8 stretches joined by a Gly/Ala/Ser/Thr linker)
Sequence (Q07817 2-197 N197C): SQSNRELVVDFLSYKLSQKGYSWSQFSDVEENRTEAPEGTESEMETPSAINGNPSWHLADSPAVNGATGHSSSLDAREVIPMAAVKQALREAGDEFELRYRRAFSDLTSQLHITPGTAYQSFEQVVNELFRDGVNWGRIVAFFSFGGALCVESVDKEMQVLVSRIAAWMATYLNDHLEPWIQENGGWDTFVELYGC
method.description: Fluorescence quenching assay (PUMA peptide displacement)
test.conditions: 1 nM protein, 400 nM peptide, 2 hours at 23° C.; KI determined from IC50
readout.kind: pKi
Answers are plain numbers, as −log10 of the molar value.

Cc1cc(N(CCCC(O)CN2CCC(N)CC2)c2nc(C(=O)O)c(CCCOc3ccc(C#CCN(C)C)cc3F)s2)nnc1Nc1nc2ccccc2s1 (stereo not drawn) ... 11.46
CNCC#Cc1ccc(OCCCc2sc(N(CCCCCC[N+](C)(C)C)c3cc(C)c(Nc4nc5ccccc5s4)nn3)nc2C(=O)[O-])c(F)c1 ... 11.70
CNCC#Cc1cc(F)c(OCCCc2sc(N(C)c3cc(C)c(Nc4nc5ccccc5s4)nn3)nc2C(=O)O)cn1 ... 11.89
Cc1cc(N(CCCCNCCN2CCCCC2)c2nc(C(=O)O)c(CCCOc3ccc(C#CCN(C)C)cc3F)s2)nnc1Nc1nc2ccccc2s1 ... 11.17
CNCC#Cc1ccc(OCCCc2sc(N(CCCC(O)C[N+](C)(C)C)c3cc(C)c(Nc4nc5ccccc5s4)nn3)nc2C(=O)[O-])c(F)c1 (stereo not drawn) ... 11.41

// moving on: another record for pKi
Would you kindly share the measured pKi for Cc1cc(N(CCCC(O)C[N+](C)(C)C)c2nc(C(=O)[O-])c(CCCOc3ccc(C#CCN(C)C)cc3F)s2)nnc1Nc1nc2ccccc2s1 (stereo not drawn) ?
11.19

---

system.name: BCLXL (Homo sapiens, UniProt Q07817, V10N/V9A)
method.description: AlphaLISA assay (BIM peptide displacement)
test.conditions: 20 pM protein, 1 nM peptide
Field: log10 of IC50. Provide a value for each of the molecules that follow.
Note the log scale: values are log10 of IC50 expressed in nM.

Solved entries (count: 6):
C/C(=C\c1sc(N(C)c2cc(C)c(Nc3nc4ccccc4s3)nn2)nc1C(=O)O)COc1ccccc1 ... 0.28
Cc1cc(N(CCCCO)c2nc(C(=O)O)c(CCCOc3ccc(C#CCN(C)CCCS(=O)(=O)O)cc3F)s2)nnc1Nc1nc2ccccc2s1 ... -2.30
Cc1cc(N(CCCCCO)c2nc(C(=O)O)c(CCCOc3ccc(C#CCN(C)C)cc3F)s2)nnc1Nc1nc2ccccc2s1 ... -1.85
Cc1cc(N(C)c2nc(C(=O)O)c(C3CCN(S(=O)(=O)c4ccccc4)CC3)s2)nnc1Nc1nc2ccccc2s1 ... 1.66
Cc1cc(N(CCCC(O)CNCCN2CCCCC2)c2nc(C(=O)O)c(CCCOc3ccc(C#CCN(C)C)cc3F)s2)nnc1Nc1nc2ccccc2s1 (stereo not drawn) ... -2.10
C/C(=C\c1sc(N(C)c2cc(C)c(Nc3nc4ccccc4s3)nn2)nc1C(=O)O)COc1ccc(C#CCN(C)C)cc1F ... -0.74

Look at each molecule and report its log10 of IC50.
1. Cc1cc(N(CCC(O)CO)c2nc(C(=O)O)c(CCCOc3ccc(C#CCN(C)C)cc3F)s2)nnc1Nc1nc2ccccc2s1 (stereo not drawn)
2. Cc1cc(N(CCCC(O)CN(C)CCN(C)C)c2nc(C(=O)O)cs2)nnc1Nc1nc2ccccc2s1 (stereo not drawn)
3. CC(=O)N1CC(c2sc(N(C)c3cc(C)c(Nc4nc5ccccc5s4)nn3)nc2C(=O)O)C1
4. CNCC#Cc1ccc(OCCCc2sc(N(CC(CO)N3CCOCC3)c3cc(C)c(Nc4nc5ccccc5s4)nn3)nc2C(=O)O)c(F)c1 (stereo not drawn)
5. CNCCN(C)CC(O)CCCN(c1cc(C)c(Nc2nc3ccccc3s2)nn1)c1nc(C(=O)O)c(CCCOc2ccc(C#CCN(C)C)cc2F)s1 (stereo not drawn)
6. Cc1cc(N(C)c2nc(C(=O)O)c(C3CCN(C(=O)Cc4ccccc4)CC3)s2)nnc1Nc1nc2ccccc2s1
7. Cc1cc(N(CCCCCNCCN2CCN(C)CC2)c2nc(C(=O)O)c(CCCOc3ccc(C#CCN(C)C)cc3F)s2)nnc1Nc1nc2ccccc2s1

-2.40
1.00
0.36
-1.05
-2.00
2.43
-1.89

Look at each molecule and report its log10 of IC50.
1. Cc1cc(N(CCCCO)c2nc(C(=O)O)c(CCCOc3ccc(C#CCNCCCS(=O)(=O)O)cc3F)s2)nnc1Nc1nc2ccccc2s1
2. CNCC#Cc1ccc(OCCCc2sc(N(CCCC(O)CN3CCOCC3)c3cc(C)c(Nc4nc5ccccc5s4)nn3)nc2C(=O)O)c(F)c1 (stereo not drawn)
3. COc1ccc(CN(C)CC#Cc2ccc(OCCCc3sc(N(CCC(O)CO)c4cc(C)c(Nc5nc6ccccc6s5)nn4)nc3C(=O)O)c(F)c2)cc1 (stereo not drawn)

1. -2.24
2. -1.55
3. -1.24

---

system.name: Bcl-xL protein (Homo sapiens, UniProt Q07817, N197C)
Construct: (2-197)[N197C]; His-His (two His8 stretches joined by a Gly/Ala/Ser/Thr linker)
method.description: Fluorescence quenching assay (PUMA peptide displacement)
test.conditions: 1 nM protein, 400 nM peptide, 2 hours at 23° C.; KI determined from IC50
Field: Ki. Provide a value for each of the compounds that follow.
Numbers only, in pM.

CCN(CC)CCNCCCCCN(c1cc(C)c(Nc2nc3ccccc3s2)nn1)c1nc(C(=O)O)c(CCCOc2ccc(C#CCN(C)C)cc2F)s1 ... 7.4
Cc1cc(N(CCCC(O)CNCCN2CCCCC2)c2nc(C(=O)O)c(CCCOc3ccc(C#CCN(C)C)cc3F)s2)nnc1Nc1nc2ccccc2s1 (stereo not drawn) ... 3.3

// moving on: another record for Ki
Which Ki is reported with Bcl-xL protein (Homo sapiens, UniProt Q07817, N197C) for this entry: CNC/C=C/c1ccc(OCCCc2sc(N(CCCCO)c3cc(C)c(Nc4nc5ccccc5s4)nn3)nc2C(=O)O)c(F)c1 ?
1.2

---

Tested on: H146 cells
method.description: H146 cell viability, MTT assay
Type: cell-based
test.conditions: Homo sapiens, NCI-H146, 48 h, 48 h exposure
readout.kind: pIC50
Numbers only, as −log10 of the molar value.

Solved entries (count: 5):
Cc1cc(N(C)c2nc(C(=O)O)c(CCCOc3ccc(C#CCN(C)CCO)cc3F)s2)nnc1Nc1nc2ccccc2s1 [Example 76] ... 7.95
Cc1cc(N(C)c2nc(C(=O)O)c(CCCOc3ccc(C#CCN4CCCC4)cc3F)s2)nnc1Nc1nc2ccccc2s1 [Example 203] ... 8.41
Cc1cc(N(C)c2nc(C(=O)O)c(C3CCN(c4ccccc4)CC3)s2)nnc1Nc1nc2ccccc2s1 [Example 91] ... 5.27
CNCC#Cc1ccc(OC/C(C)=C/c2sc(N(C)c3cc(C)c(Nc4nc5ccccc5s4)nn3)nc2C(=O)O)c(F)c1 [Example 174] ... 4.90
COCCCc1sc(N(CCCOC)c2cc(C)c(Nc3nc4ccccc4s3)nn2)nc1C(=O)O [Example 64] ... 7.65

Look at each molecule and report its pIC50.
1. Cc1cc(N(CCC(O)CO)c2nc(C(=O)O)c(CCCOc3ccc(C#CCN(C)C)cc3F)s2)nnc1Nc1nc2ccccc2s1 (centres unmarked) [Example 123]
2. CNCCCCN(c1cc(C)c(Nc2nc3ccccc3s2)nn1)c1nc(C(=O)O)c(CCCOc2ccc(C#CCN(C)C)cc2F)s1 [Example 188]
3. CNCC#Cc1ccc(OCCCc2sc(N(CCCO)c3cc(C)c(Nc4nc5ccccc5s4)nn3)nc2C(=O)O)c(F)c1 [Example 127]

1. 8.20
2. 8.26
3. 8.04

Look at each molecule and report its pIC50.
1. CNCC#Cc1ccc(OCCCc2sc(N(CCCCO)c3cc(C)c(Nc4nc5ccccc5s4)nn3)nc2C(=O)O)c(F)c1 [Example 114]
2. Cc1cc(N(C)c2nc(C(=O)O)c(CCCOc3ccc(C#CCN4CCOCC4)cc3F)s2)nnc1Nc1nc2ccccc2s1 [Example 198]
3. Cc1cc(N(CCCC(O)C[N+]23CCC(CC2)CC3)c2nc(C(=O)[O-])c(CCCOc3ccc(C#CCN(C)C)cc3F)s2)nnc1Nc1nc2ccccc2s1 (centres unmarked) [Example 215]
4. Cc1c(Nc2nc(C(=O)O)c(-c3cnn(CC45CC6CC(CC(C6)C4)C5)c3C)s2)nnc(Nc2nc3ccccc3s2)c1C [Example 33]
5. Cc1cc(N(CCCCCNCCN2CCN(C)CC2)c2nc(C(=O)O)c(CCCOc3ccc(C#CCN(C)C)cc3F)s2)nnc1Nc1nc2ccccc2s1 [Example 167]
6. Cc1cc(N(CCCCCNCCN2CCCCC2)c2nc(C(=O)O)c(CCCOc3ccc(C#CCN(C)C)cc3F)s2)nnc1Nc1nc2ccccc2s1 [Example 187]

1. 8.80
2. 5.85
3. 6.76
4. 5.36
5. 6.36
6. 4.63

Look at each molecule and report its pIC50.
1. Cc1cc(N(C)c2nc(C(=O)O)c(-c3cnn(CC45CC6CC(CC(C6)C4)C5)c3C)s2)nnc1Nc1nc2ccccc2s1 [Example 40]
2. CC(C)c1cc(Nc2nc(C(=O)O)cs2)nnc1Nc1nc2ccccc2s1 [Example 5]
3. Cc1cc(N(CCCCO)c2nc(C(=O)O)c(CCCOc3ccc(C#CCN(C)C)cc3F)s2)nnc1Nc1nc2ccccc2s1 [Example 134]
4. Cc1cc(N(C)c2nc(C(=O)O)c(CCCOC3CCCCC3)s2)nnc1Nc1nc2ccccc2s1 [Example 61]

[5.42, 5.09, 8.72, 6.23]

Look at each molecule and report its pIC50.
1. COCCCN(c1cc(C)c(Nc2nc3ccccc3s2)nn1)c1nc(C(=O)O)c(CCCOC2CCCCC2)s1 [Example 66]
2. COCCCc1sc(N(C)c2cc(C)c(Nc3nc4ccccc4s3)nn2)nc1C(=O)O [Example 60]
3. Cc1cc(N(CCCC(O)CNCCN2CCCCC2)c2nc(C(=O)O)c(CCCOc3ccc(C#CCN(C)C)cc3F)s2)nnc1Nc1nc2ccccc2s1 (centres unmarked) [Example 173]
4. CNCC#Cc1ccc(OCCCc2sc(N(CCCCCN(C)C)c3cc(C)c(Nc4nc5ccccc5s4)nn3)nc2C(=O)O)c(F)c1 [Example 213]
5. CC(C)c1cc(N(C)c2nc(C(=O)O)cs2)nnc1Nc1nc2ccccc2s1 [Example 34]

1: 5.94; 2: 5.24; 3: 6.68; 4: 7.14; 5: 5.27
